// provenance: PubChem BioAssay AID504513

- ASSAY TARGET: UniProtKB Q8VDG7
- Sequence (Q8VDG7 whole entry, looked up): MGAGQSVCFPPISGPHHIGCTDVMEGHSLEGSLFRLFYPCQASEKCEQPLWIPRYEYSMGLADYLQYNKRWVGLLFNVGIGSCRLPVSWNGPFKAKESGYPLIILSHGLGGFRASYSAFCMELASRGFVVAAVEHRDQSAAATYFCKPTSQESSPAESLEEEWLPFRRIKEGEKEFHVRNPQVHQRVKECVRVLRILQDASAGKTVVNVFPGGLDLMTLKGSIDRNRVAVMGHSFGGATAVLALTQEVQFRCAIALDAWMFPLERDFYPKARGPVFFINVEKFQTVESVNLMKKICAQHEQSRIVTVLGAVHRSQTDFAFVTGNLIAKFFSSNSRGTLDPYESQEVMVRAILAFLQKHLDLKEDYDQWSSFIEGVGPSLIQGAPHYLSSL
- ASSAY INFO: competitive ABPP of PAFAH2 versus anti-target hydrolases – cell lysate, fluorescence, gel-based ABPP, BW5147 T-cell proteome, powder samples, late-stage follow-up (AID 504513);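 also: 0% = DMSO-only band intensity and 100% = blank gel background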
- RUN CONDITIONS: FP-Rh gel ABPP, PAFAH2, inhibition, at 0.2 µM, stronger effect = higher value
VALUE KIND: inhibition (%)

The following compounds have reported results that may help.
[[record]]
mol = "CCN(CC)C(=O)n1ccnn1"
number = 0

[[record]]
mol = "O=C(N1CCCC1)n1ncc(-c2ccc(OC(F)(F)F)cc2)n1"
number = 100

[[record]]
mol = "O=C(N1CCCC1)n1ncc(-c2ccc(Oc3ccccc3)cc2)n1"
number = 100

[[record]]
mol = "COc1ccc2cc(-c3cnn(C(=O)N4CCCC4)n3)ccc2c1"
number = 100

[[record]]
mol = "O=C(N(c1ccccc1)c1ccccc1)n1ccnn1"
number = 0


P. O=C(N1CCOCC1)n1ncc(-c2cc(F)cc(F)c2)n1
Q. O=C(N1CCOCC1)n1ncc(C(O)(c2ccccc2)c2ccccc2)n1
R. O=C(N1CCOCC1)n1ccnn1
QUERY: Please list the entries, largest inhibition first. Output spec: labels arranged per the requested ranking.
RESULT: P, Q, R

I. O=C(N1CCCC1)n1ncc(-c2ccc(-c3ccccc3)cc2)n1
II. O=C(n1ccnn1)n1c2ccccc2c2ccccc21
III. O=C(N1CCOCC1)n1ncc(-c2ccc(OC(F)(F)F)cc2)n1
QUERY: Please list the entries, largest inhibition first. Output spec: labels arranged per the requested ranking.
RESULT: I, III, II
(I: 100%, III: 50%, II: 0%)

----------
- System: APEH
- ASSAY INFO: competitive ABPP of PAFAH2 versus anti-target hydrolases – cell lysate, fluorescence, gel-based ABPP, BW5147 T-cell proteome, powder samples, late-stage follow-up (AID 504513);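 also: 0% = DMSO-only band intensity and 100% = blank gel background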
- RUN CONDITIONS: BW5147 mouse T-cell proteome, FP-Rh gel ABPP, at 1 µM, stronger effect = higher value
VALUE KIND: inhibition (%)

The following compounds have reported results that may help.
[[record]]
mol = "O=C(N1CCCC1)n1ccnn1"
value_kind = "inhibition"
number = 100

[[record]]
mol = "O=C(N1CCCC1)n1ncc(-c2ccc(OC(F)(F)F)cc2)n1"
value_kind = "inhibition"
number = 100

[[record]]
mol = "O=C(N1CCCC1)n1ncc(-c2ccccc2)n1"
value_kind = "inhibition"
number = 100


P. CN(C)C(=O)n1ccnn1
Q. O=C(N1CCOCC1)n1ncc(-c2ccccc2)n1
QUERY: Quick check, higher inhibition between P and Q ? Write down the label attached to your selection.
RESULT: Q
(Q: 50%, P: 0%)

1. C=CCN(CC=C)C(=O)n1ccnn1
2. O=C(N1CCCC1)n1ncc(-c2ccc(Oc3ccccc3)cc2)n1
QUERY: For 1 and 2 , which recorded inhibition is lower? Write down the label attached to your selection.
RESULT: 1

A. O=C(N1CCCCC1)n1ccnn1
B. COc1ccc2cc(-c3cnn(C(=O)N4CCCC4)n3)ccc2c1
QUERY: Quick check, higher inhibition between A and B ? Write down the label attached to your selection.
RESULT: B
(B: 100%, A: 0%)

1. CN(C(=O)n1ccnn1)c1ccccc1
2. O=C(N1CCOCC1)n1ncc(-c2cc(F)cc(F)c2)n1
QUERY: Quick check, higher inhibition between 1 and 2 ? Write down the label attached to your selection.
RESULT: 2
(2: 100%, 1: 0%)

1. O=C(N1CCOCC1)n1ncc(C(O)(c2ccccc2)c2ccccc2)n1
2. O=C(N1CCCC1)n1ncc(C(O)(c2ccccc2)c2ccccc2)n1
QUERY: For 1 and 2 , which recorded inhibition is lower? Write down the label attached to your selection.
RESULT: 1

----------
- Tested on: ABHD11
- ASSAY INFO: competitive ABPP of PAFAH2 versus anti-target hydrolases – cell lysate, fluorescence, gel-based ABPP, BW5147 T-cell proteome, powder samples, late-stage follow-up (AID 504513);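 also: 0% = DMSO-only band intensity and 100% = blank gel background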
- RUN CONDITIONS: BW5147 mouse T-cell proteome, FP-Rh gel ABPP, at 1 µM, stronger effect = higher value
VALUE KIND: inhibition (%)

The following molecules have reported results that may help.
[[record]]
mol = "C=CCN(CC=C)C(=O)n1ccnn1"
number = 100

[[record]]
mol = "O=C(N1CCCC1)n1ncc(-c2ccc(-c3ccccc3)cc2)n1"
number = 0

[[record]]
mol = "O=C(N1CCCC1)n1ncc(C(O)(c2ccccc2)c2ccccc2)n1"
number = 100


A. O=C(N1CCCC1)n1ncc(-c2ccc(Oc3ccccc3)cc2)n1
B. O=C(N1CCCCC1)n1ccnn1
QUERY: For A and B , which recorded inhibition is lower? Write down the label attached to your selection.
RESULT: A

----------
- System: LYPLA1
- ASSAY INFO: competitive ABPP of PAFAH2 versus anti-target hydrolases – cell lysate, fluorescence, gel-based ABPP, BW5147 T-cell proteome, powder samples, late-stage follow-up (AID 504513);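 also: 0% = DMSO-only band intensity and 100% = blank gel background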
- RUN CONDITIONS: BW5147 mouse T-cell proteome, FP-Rh gel ABPP, inhibition, at 0.02 µM, stronger effect = higher value
VALUE KIND: inhibition (%)

[[record]]
mol = "O=C(n1ccnn1)n1c2ccccc2c2ccccc21"
assay_target = "LYPLA1"
number = 0

[[record]]
mol = "O=C(N1CCOCC1)n1ncc(-c2cc(F)cc(F)c2)n1"
assay_target = "LYPLA1"
number = 0

[[record]]
mol = "CN(C(=O)n1ccnn1)c1ccccc1"
assay_target = "LYPLA1"
number = 0

[[record]]
mol = "C=CCN(CC=C)C(=O)n1ccnn1"
assay_target = "LYPLA1"
number = 0

[[record]]
mol = "O=C(N1CCCC1)n1ncc(-c2ccc(Oc3ccccc3)cc2)n1"
assay_target = "LYPLA1"
number = 0

[[record]]
mol = "O=C(N1CCOCC1)n1ncc(-c2ccc(OC(F)(F)F)cc2)n1"
assay_target = "LYPLA1"
number = 0

[[record]]
mol = "O=C(N1CCCC1)n1ncc(-c2ccc(-c3ccccc3)cc2)n1"
assay_target = "LYPLA1"
number = 0

[[record]]
mol = "O=C(N1CCOCC1)n1ncc(-c2ccccc2)n1"
assay_target = "LYPLA1"
number = 0

[[record]]
mol = "O=C(N1CCCC1)n1ccnn1"
assay_target = "LYPLA1"
number = 0

[[record]]
mol = "CCN(CC)C(=O)n1ccnn1"
assay_target = "LYPLA1"
number = 0

[[record]]
mol = "CN1CCN(C(=O)n2ccnn2)CC1"
assay_target = "LYPLA1"
number = 0

[[record]]
mol = "O=C(N1CCCCC1)n1ccnn1"
assay_target = "LYPLA1"
number = 0

[[record]]
mol = "O=C(N1CCOCC1)n1ccnn1"
assay_target = "LYPLA1"
number = 0

[[record]]
mol = "O=C(N1CCCC1)n1ncc(-c2ccccc2)n1"
assay_target = "LYPLA1"
number = 0

[[record]]
mol = "O=C(N1CCCC1)n1ncc(-c2ccc(OC(F)(F)F)cc2)n1"
assay_target = "LYPLA1"
number = 0

[[record]]
mol = "COc1ccc2cc(-c3cnn(C(=O)N4CCCC4)n3)ccc2c1"
assay_target = "LYPLA1"
number = 0

[[record]]
mol = "O=C(N(c1ccccc1)c1ccccc1)n1ccnn1"
assay_target = "LYPLA1"
number = 0

[[record]]
mol = "O=C(N1CCCC1)n1ncc(C(O)(c2ccccc2)c2ccccc2)n1"
assay_target = "LYPLA1"
number = 0

[[record]]
mol = "CN(C)C(=O)n1ccnn1"
assay_target = "LYPLA1"
number = 0

[[record]]
mol = "O=C(N1CCOCC1)n1ncc(C(O)(c2ccccc2)c2ccccc2)n1"
assay_target = "LYPLA1"
number = 0


----------
- ASSAY TARGET: UniProt Q8VDG7
- ASSAY INFO: competitive ABPP of PAFAH2 versus anti-target hydrolases – cell lysate, fluorescence, gel-based ABPP, BW5147 T-cell proteome, powder samples, late-stage follow-up (AID 504513);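 also: 0% = DMSO-only band intensity and 100% = blank gel background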
- RUN CONDITIONS: FP-Rh gel ABPP, PAFAH2, inhibition, at 0.02 µM, stronger effect = higher value
VALUE KIND: inhibition (%)

The following compounds have reported results that may help.
[[record]]
mol = "O=C(N1CCOCC1)n1ncc(-c2ccc(OC(F)(F)F)cc2)n1"
assay_target = "UniProt Q8VDG7"
value_kind = "inhibition"
number = 0

[[record]]
mol = "O=C(N1CCCC1)n1ncc(C(O)(c2ccccc2)c2ccccc2)n1"
assay_target = "UniProt Q8VDG7"
value_kind = "inhibition"
number = 0


P. O=C(N1CCCC1)n1ncc(-c2ccc(-c3ccccc3)cc2)n1
Q. O=C(N1CCCCC1)n1ccnn1
QUERY: For P and Q , which recorded inhibition is lower? Write down the label attached to your selection.
RESULT: Q

----------
- Test system: APEH
- ASSAY INFO: competitive ABPP of PAFAH2 versus anti-target hydrolases – cell lysate, fluorescence, gel-based ABPP, BW5147 T-cell proteome, powder samples, late-stage follow-up (AID 504513);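 also: 0% = DMSO-only band intensity and 100% = blank gel background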
- RUN CONDITIONS: BW5147 mouse T-cell proteome, FP-Rh gel ABPP, inhibition, at 0.2 µM, stronger effect = higher value
VALUE KIND: inhibition (%)

I. O=C(N1CCCC1)n1ncc(-c2ccccc2)n1
II. CCN(CC)C(=O)n1ccnn1
QUERY: Quick check, higher inhibition between I and II ? Write down the label attached to your selection.
RESULT: I
(I: 100%, II: 0%)

A. O=C(N1CCOCC1)n1ncc(-c2cc(F)cc(F)c2)n1
B. O=C(N(c1ccccc1)c1ccccc1)n1ccnn1
QUERY: Quick check, higher inhibition between A and B ? Write down the label attached to your selection.
RESULT: A
(A: 100%, B: 0%)

I. C=CCN(CC=C)C(=O)n1ccnn1
II. O=C(N1CCCC1)n1ncc(-c2ccc(Oc3ccccc3)cc2)n1
QUERY: For I and II , which recorded inhibition is lower? Write down the label attached to your selection.
RESULT: I
(I: 0%, II: 100%)
